tested on: PPARa:RXRa (NR concentration 270 nM, RXRa partner concentration 90 nM); assay: PBM binding z-score (relative to random genomic background probes); higher = stronger binding; sequences stand for … in GC…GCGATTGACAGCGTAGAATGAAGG
The entries below are paired with their reported PBM binding z-score.

{"Entry Sequence": "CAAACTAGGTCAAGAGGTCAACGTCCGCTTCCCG", "PBM binding z-score": 6.6}
{"Entry Sequence": "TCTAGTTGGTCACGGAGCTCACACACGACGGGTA", "PBM binding z-score": 0.663}
{"Entry Sequence": "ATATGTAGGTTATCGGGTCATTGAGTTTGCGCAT", "PBM binding z-score": 4.75}
{"Entry Sequence": "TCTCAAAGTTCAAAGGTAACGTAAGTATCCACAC", "PBM binding z-score": 5.43}
{"Entry Sequence": "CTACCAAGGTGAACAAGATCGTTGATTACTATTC", "PBM binding z-score": 1.31}
{"Entry Sequence": "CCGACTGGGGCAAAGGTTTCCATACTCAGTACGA", "PBM binding z-score": 3.35}
{"Entry Sequence": "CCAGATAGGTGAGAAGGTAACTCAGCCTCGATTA", "PBM binding z-score": 1.14}
{"Entry Sequence": "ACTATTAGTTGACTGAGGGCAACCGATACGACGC", "PBM binding z-score": 0.506}
{"Entry Sequence": "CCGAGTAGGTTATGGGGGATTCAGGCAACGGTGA", "PBM binding z-score": 2.55}
{"Entry Sequence": "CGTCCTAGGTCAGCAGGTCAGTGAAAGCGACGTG", "PBM binding z-score": 3.23}
{"Entry Sequence": "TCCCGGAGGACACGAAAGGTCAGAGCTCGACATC", "PBM binding z-score": 3.45}
{"Entry Sequence": "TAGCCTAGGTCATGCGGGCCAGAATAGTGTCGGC", "PBM binding z-score": 3.93}

###

The entries below are paired with their reported PBM binding z-score.
system: THRa homodimer (NR concentration 90 nM); assay: PBM binding z-score (relative to random genomic background probes); higher = stronger binding; sequences stand for … in GC…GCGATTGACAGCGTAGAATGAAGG
Value Type: PBM binding z-score

{"Entry Sequence": "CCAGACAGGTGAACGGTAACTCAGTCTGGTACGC", "Measured Number": -0.646}
{"Entry Sequence": "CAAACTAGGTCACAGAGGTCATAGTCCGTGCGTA", "Measured Number": 3.22}
{"Entry Sequence": "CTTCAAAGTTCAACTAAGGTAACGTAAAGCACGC", "Measured Number": 2.06}
{"Entry Sequence": "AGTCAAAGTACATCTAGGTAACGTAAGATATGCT", "Measured Number": -0.353}
{"Entry Sequence": "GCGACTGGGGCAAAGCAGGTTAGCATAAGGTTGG", "Measured Number": -0.225}
{"Entry Sequence": "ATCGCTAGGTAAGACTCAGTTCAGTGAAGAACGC", "Measured Number": -0.192}
{"Entry Sequence": "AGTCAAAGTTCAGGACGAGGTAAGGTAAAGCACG", "Measured Number": 2.26}
{"Entry Sequence": "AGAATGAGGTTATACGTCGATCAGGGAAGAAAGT", "Measured Number": 0.495}
{"Entry Sequence": "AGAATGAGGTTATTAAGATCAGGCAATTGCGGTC", "Measured Number": 0.632}
{"Entry Sequence": "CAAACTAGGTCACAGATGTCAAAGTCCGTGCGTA", "Measured Number": 1.68}
{"Entry Sequence": "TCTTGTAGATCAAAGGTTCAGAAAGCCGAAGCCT", "Measured Number": -0.308}
{"Entry Sequence": "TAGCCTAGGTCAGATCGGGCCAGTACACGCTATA", "Measured Number": 0.126}
{"Entry Sequence": "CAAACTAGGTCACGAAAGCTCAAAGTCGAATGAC", "Measured Number": 1.48}
{"Entry Sequence": "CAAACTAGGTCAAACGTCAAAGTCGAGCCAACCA", "Measured Number": 0.831}
{"Entry Sequence": "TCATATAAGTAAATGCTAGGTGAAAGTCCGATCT", "Measured Number": 0.526}
{"Entry Sequence": "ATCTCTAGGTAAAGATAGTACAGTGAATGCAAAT", "Measured Number": 0.0174}
{"Entry Sequence": "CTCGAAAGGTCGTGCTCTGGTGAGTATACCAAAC", "Measured Number": 0.441}
{"Entry Sequence": "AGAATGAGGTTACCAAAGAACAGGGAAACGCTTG", "Measured Number": 0.733}
{"Entry Sequence": "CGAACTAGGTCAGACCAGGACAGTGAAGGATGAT", "Measured Number": 0.741}
{"Entry Sequence": "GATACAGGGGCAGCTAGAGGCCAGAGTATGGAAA", "Measured Number": -0.373}
{"Entry Sequence": "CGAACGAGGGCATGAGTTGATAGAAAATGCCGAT", "Measured Number": -0.093}
{"Entry Sequence": "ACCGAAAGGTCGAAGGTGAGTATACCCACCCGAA", "Measured Number": -0.114}
{"Entry Sequence": "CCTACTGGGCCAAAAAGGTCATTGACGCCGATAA", "Measured Number": 0.658}
{"Entry Sequence": "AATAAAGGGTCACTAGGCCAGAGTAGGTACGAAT", "Measured Number": 0.263}
{"Entry Sequence": "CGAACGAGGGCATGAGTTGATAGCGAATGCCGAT", "Measured Number": -0.229}
{"Entry Sequence": "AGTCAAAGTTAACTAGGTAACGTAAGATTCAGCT", "Measured Number": -0.252}
